Task for the reader: assign each of the following compounds its reported IC50.
Target: SARS-CoV-2 3CL-protease (Severe acute respiratory syndrome coronavirus 2, UniProt P0DTD1)
Assay: SARS-CoV-2 3C-like (3CL) protease fluorescence assay (FRET)
Assay type: biochemical
Settings: recombinant SARS-CoV-2 3CL-protease 10 nM, 30 min preincubation, run in duplicate; read-out: FRET IC50

Challenge: State the recorded IC50 for this entry: CC(C)[C@H](NC(=O)C(=O)N[C@@H](CC(C)(C)C)C(=O)N1C[C@]2(C[C@H]1C#N)C(=O)Nc1ccccc12)c1ccccc1 [Example 116]
Response given: < 100 nM

Challenge: And Cc1cccc(Cl)c1NC(=O)C(=O)N[C@@H](CC(C)(C)C)C(=O)N1C[C@]2(C[C@H]1C#N)C(=O)Nc1ccccc12 [Example 147] ?
Response given: < 100 nM

Challenge: Next entry: Cc1cccc(C)c1NC(=O)C(=O)N[C@@H](Cc1ccccc1)C(=O)N1C[C@]2(C[C@H]1C#N)C(=O)Nc1ccccc12 [Example 203]
Response given: < 100 nM

Challenge: And for CC(C)(C)C[C@H](NC(=O)C(=O)NC(C)(C)C(F)(F)F)C(=O)N1C[C@]2(C[C@H]1C#N)C(=O)Nc1ccccc12 [Example 135] ?
Response given: < 100 nM

Challenge: Record: CC(C)(C)C[C@H](NC(=O)C(=O)Nc1ccc(Cl)cc1C(F)(F)F)C(=O)N1C[C@]2(C[C@H]1C#N)C(=O)Nc1ccccc12 [Example 149]
Response given: < 100 nM

Challenge: Next: CC(C)(C)C[C@H](NC(=O)C(=O)C1CCCCC1)C(=O)N1C[C@]2(C[C@H]1C#N)C(=O)Nc1ccccc12 [Example 183]
Response given: < 100 nM

Challenge: Try this compound too: CC(C)(C)C[C@H](NC(=O)C(=O)N[C@@H]1CC2CC[C@H](C2)C1)C(=O)N1C[C@]2(C[C@H]1C#N)C(=O)Nc1ccccc12 [Example 165]
Response given: < 100 nM

Challenge: Again, but for CC(C)(C)C[C@H](NC(=O)C(=O)Nc1c(Cl)cccc1C#N)C(=O)N1C[C@]2(C[C@H]1C#N)C(=O)Nc1ccccc12 [Example 148]
Response given: < 100 nM

Challenge: Further, for CC(C)(C)C[C@H](NC(=O)C(=O)Nc1ccc(C(F)(F)F)cc1C(F)(F)F)C(=O)N1C[C@]2(C[C@H]1C#N)C(=O)Nc1ccccc12 [Example 137] ?
Response given: 100 to 1000 nM

Challenge: Item: CC(C)(C)C[C@@H](C(=O)N1C[C@]2(C[C@H]1C#N)C(=O)Nc1ccccc12)N(CC(F)(F)F)C(=O)C(=O)Nc1ccccc1 [Example 65]
Response given: 100 to 1000 nM

Challenge: Please do the same for CCCC[C@H](NC(=O)C(=O)Nc1c(F)cccc1C(F)(F)F)C(=O)N1C[C@]2(C[C@H]1C#N)C(=O)Nc1ccccc12 [Example 79] as well.
Response given: < 100 nM

Challenge: Cool, now CCC(C)NC(=O)C(=O)N[C@@H](CC(C)(C)C)C(=O)N1C[C@]2(C[C@H]1C#N)C(=O)Nc1ccccc12 (some centres unmarked) [Example 88]
Response given: < 100 nM

Challenge: Now try CC(C)(C)C[C@H](NC(=O)C(=O)NCc1ccccc1)C(=O)N1C[C@]2(C[C@H]1C#N)C(=O)Nc1ccccc12 [Example 159] .
Response given: < 100 nM

Challenge: Now try CC(C)(C)C[C@H](NC(=O)C(=O)Nc1ccccc1C(F)(F)F)C(=O)N1C[C@]2(C[C@H]1C#N)C(=O)Nc1ccccc12 [Example 195] .
Response given: < 100 nM

Challenge: Entry to check: C[C@H](NC(=O)C(=O)N[C@@H](CC(C)(C)C)C(=O)N1C[C@]2(C[C@H]1C#N)C(=O)Nc1ccccc12)c1ccccc1 [Example 161]
Response given: < 100 nM

Challenge: N#C[C@@H]1C[C@@]2(CN1C(=O)[C@H](CC1CC1)NC(=O)C(=O)Nc1ccc(C(F)(F)F)nc1)C(=O)Nc1ccccc12 [Example 174] , same question.
Response given: < 100 nM

Challenge: # iterate: CC(C)(C)C[C@H](NC(=O)C(=O)N1CCCCC1)C(=O)N1C[C@]2(C[C@H]1C#N)C(=O)Nc1ccccc12 [Example 110]
Response given: > 1000 nM
